Assign pIC50 to each entry below.
tgt: Avi-KRAS G12D (1-169) GppNHp/RAF1 RBD-3xFLAG (52-151) (Homo sapiens, UniProt P01116, G12D)
Construct: Avi-KRAS G12D (1-169)
Sequence (P01116 1-169 isoform P01116-2 G12D): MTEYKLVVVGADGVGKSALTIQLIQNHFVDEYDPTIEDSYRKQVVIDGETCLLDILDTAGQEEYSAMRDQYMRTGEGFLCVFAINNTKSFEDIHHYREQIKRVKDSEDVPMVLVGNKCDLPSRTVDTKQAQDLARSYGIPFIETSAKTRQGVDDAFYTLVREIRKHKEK
method: Raf1-KRAS G12D-GppNHP disruption HTRF assay (Biological Example 1)
Assay type: binding
conditionSet: KRAS G12D-GppNHp/RAF1 RBD HTRF
pIC50: −log10 of the molar value.

Q: Quote pIC50 with test system Avi-KRAS G12D (1-169) GppNHp/RAF1 RBD-3xFLAG (52-151) (Homo sapiens, UniProt P01116, G12D) for `CN1CC[C@H](N(C)c2nc(OC[C@@]34CCCN3C[C@H](F)C4)nc3c(F)c(-c4ccc(F)c5sc(N)c(C#N)c45)c(C(F)(F)F)cc23)CC1=O`
Ans: 6.00 to 7.00

Q: Quote pIC50 with test system Avi-KRAS G12D (1-169) GppNHp/RAF1 RBD-3xFLAG (52-151) (Homo sapiens, UniProt P01116, G12D) for `CCN(c1nc(OC[C@@]23CCCN2C[C@H](F)C3)nc2c(F)c(-c3ccc(F)c4sc(N)c(C#N)c34)c(C(F)(F)F)cc12)[C@@H]1CCN(C(=O)N(C)C)[C@@H]1C`
Ans: > 7.00

Q: Quote pIC50 with test system Avi-KRAS G12D (1-169) GppNHp/RAF1 RBD-3xFLAG (52-151) (Homo sapiens, UniProt P01116, G12D) for `CCN(c1nc(OC[C@@]23CCCN2C[C@H](F)C3)nc2c(F)c(-c3ccc(F)c4sc(N)c(C#N)c34)c(C(F)(F)F)cc12)[C@H]1CC(=O)N(C2CC2)C1`
Ans: 6.00 to 7.00

Q: Quote pIC50 with test system Avi-KRAS G12D (1-169) GppNHp/RAF1 RBD-3xFLAG (52-151) (Homo sapiens, UniProt P01116, G12D) for `N#Cc1c(N)sc2c(F)ccc(-c3c(C(F)(F)F)cc4c(N5CCCC[C@H](O)C5)nc(OC[C@@]56CCCN5C[C@H](F)C6)nc4c3F)c12`
Ans: 6.00 to 7.00

----------
tgt: Avi-KRAS G12V (1-169) GppNHp/RAF1 RBD-3xFLAG (52-151) (Homo sapiens, UniProt P01116, G12V)
Construct: Avi-KRAS G12V (1-169)
Sequence (P01116 1-169 isoform P01116-2 G12V): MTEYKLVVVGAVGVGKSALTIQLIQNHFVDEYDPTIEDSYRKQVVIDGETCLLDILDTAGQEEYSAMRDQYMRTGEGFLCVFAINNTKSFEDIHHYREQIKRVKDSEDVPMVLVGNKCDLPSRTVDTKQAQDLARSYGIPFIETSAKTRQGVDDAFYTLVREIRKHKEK
method: Raf1-KRAS G12V-GppNHP disruption HTRF assay (Biological Example 1)
Type: binding
conditionSet: KRAS G12V, GppNHp-loaded; Table 11
pIC50: −log10 of the molar value.
Assign pIC50 to each entry below.

Q: Give reported pIC50 value for CN(c1nc(OC[C@@]23CCCN2C[C@H](F)C3)nc2c(F)c(-c3ccc(F)c4sc(N)c(C#N)c34)c(C(F)(F)F)cc12)[C@H]1CCOC1 [Compound 133]
Ans: 6.00 to 7.00

Q: Give reported pIC50 value for CN(c1nc(OCC23CCCN2CCC3)nc2c(F)c(-c3ccc(F)c4sc(N)nc34)c(C(F)(F)F)cc12)[C@@H]1CC[C@H](O)C1 (atropisomer, axis not shown) [Compound 62]
Ans: < 5.00

Q: Give reported pIC50 value for CN(CC(F)F)c1nc(OC[C@@]23CCCN2C[C@H](F)C3)nc2c(F)c(-c3ccc(F)c4sc(N)c(C#N)c34)c(C(F)(F)F)cc12 [Compound 164]
Ans: 6.00 to 7.00

Q: Give reported pIC50 value for CC(=O)N1CC[C@@H](N(C)c2nc(OC[C@@]34CCCN3C[C@H](F)C4)nc3c(F)c(-c4ccc(F)c5sc(N)c(C#N)c45)c(C(F)(F)F)cc23)[C@H]1C (single isomer, unassigned) [Compound 193]
Ans: > 7.00

Q: Give reported pIC50 value for N#Cc1c(N)sc2c(F)ccc(-c3c(C(F)(F)F)cc4c(N5CCOCC(O)C5)nc(OC[C@@]56CCCN5C[C@H](F)C6)nc4c3F)c12 (stereo partly shown) [Compound 266]
Ans: 6.00 to 7.00

Q: Give reported pIC50 value for N#Cc1c(N)sc2c(F)ccc(-c3c(C(F)(F)F)cc4c(N5CC(F)C5)nc(OC[C@@]56CCCN5C[C@H](F)C6)nc4c3F)c12 [Compound 222]
Ans: 6.00 to 7.00

Q: Give reported pIC50 value for CN(c1nc(OC[C@@]23CCCN2C[C@H](F)C3)nc2c(F)c(-c3ccc(F)c4sc(N)c(C#N)c34)c(C(F)(F)F)cc12)[C@@H]1CCN(S(C)(=O)=O)C1 [Compound 95]
Ans: 6.00 to 7.00

Q: Give reported pIC50 value for Nc1nc2c(-c3c(C(F)(F)F)cc4c(N5CCCC(CO)C5)nc(OCC56CCCN5CCC6)nc4c3F)ccc(F)c2s1 (stereo not shown) [Compound 54]
Ans: < 5.00

Q: Give reported pIC50 value for CC(=O)N1CC[C@@H](N(C)c2nc(OC[C@@]34CCCN3C[C@H](F)C4)nc3c(F)c(-c4ccc(F)c5sc(N)c(C#N)c45)c(C(F)(F)F)cc23)[C@@H]1C [Compound 190]
Ans: 6.00 to 7.00

Q: Give reported pIC50 value for N#Cc1c(N)sc2c(F)ccc(-c3c(C(F)(F)F)cc4c(N5CC6CCC5CO6)nc(OC[C@@]56CCCN5C[C@H](F)C6)nc4c3F)c12 (stereo partly shown) [Compound 146]
Ans: 6.00 to 7.00

Q: Give reported pIC50 value for N#Cc1c(N)sc2c(F)ccc(-c3c(C(F)(F)F)cc4c(N5CCC(CO)CC5)nc(OC[C@@]56CCCN5C[C@H](F)C6)nc4c3F)c12 [Compound 44]
Ans: 6.00 to 7.00

Q: Give reported pIC50 value for CCC(=O)N1CC[C@@H](N(C)c2nc(OC[C@@]34CCCN3C[C@H](F)C4)nc3c(F)c(-c4ccc(F)c5sc(N)c(C#N)c45)c(C(F)(F)F)cc23)[C@H]1C [Compound 116]
Ans: 6.00 to 7.00

Q: Give reported pIC50 value for CN(c1nc(OCC2(CN3CCOCC3)CC2)nc2c(F)c(-c3ccc(F)c4sc(N)c(C#N)c34)c(C(F)(F)F)cc12)[C@H]1C[C@@H](O)C1 (atropisomer, axis not shown) [Compound 122]
Ans: 6.00 to 7.00

Q: Give reported pIC50 value for N#Cc1c(N)sc2c(F)ccc(-c3c(C(F)(F)F)cc4c(N5CCn6nccc6C5)nc(OC[C@@]56CCCN5C[C@H](F)C6)nc4c3F)c12 [Compound 233]
Ans: 5.00 to 6.00

Q: Give reported pIC50 value for CCN(c1nc(OC[C@@]23CCCN2C[C@H](F)C3)nc2c(F)c(-c3ccc(F)c4sc(N)c(C#N)c34)c(C(F)(F)F)cc12)[C@H]1CCN(C(C)=O)C1 [Compound 262]
Ans: > 7.00

Q: Give reported pIC50 value for CCN(CCO)c1nc(OC[C@@H]2C[C@@H](OC)CN2C)nc2c(F)c(-c3ccc(F)c4sc(N)c(C#N)c34)c(C(F)(F)F)cc12 [Compound 178]
Ans: 5.00 to 6.00

Q: Give reported pIC50 value for CN(CCCO)c1nc(OC[C@@]23CCCN2C[C@H](F)C3)nc2c(F)c(-c3ccc(F)c4sc(N)c(C#N)c34)c(C(F)(F)F)cc12 [Compound 73]
Ans: 6.00 to 7.00

Q: Give reported pIC50 value for N#CC[C@@H]1CN(c2nc(OC[C@@]34CCCN3C[C@H](F)C4)nc3c(F)c(-c4ccc(F)c5sc(N)c(C#N)c45)c(C(F)(F)F)cc23)CCO1 [Compound 136]
Ans: 5.00 to 6.00

Q: Give reported pIC50 value for CN(c1nc(OC[C@@]23CCCN2C[C@H](F)C3)nc2c(F)c(-c3ccc(F)c4sc(N)c(C#N)c34)c(C(F)(F)F)cc12)[C@@H]1CCS(=O)(=O)C1 [Compound 93]
Ans: 6.00 to 7.00

----------
tgt: Avi-KRAS WT (1-169) GppNHp/RAF1 RBD-3xFLAG (52-151) (Homo sapiens, UniProt P01116)
Construct: Avi-KRAS WT (1-169)
Sequence (P01116 1-169 isoform P01116-2): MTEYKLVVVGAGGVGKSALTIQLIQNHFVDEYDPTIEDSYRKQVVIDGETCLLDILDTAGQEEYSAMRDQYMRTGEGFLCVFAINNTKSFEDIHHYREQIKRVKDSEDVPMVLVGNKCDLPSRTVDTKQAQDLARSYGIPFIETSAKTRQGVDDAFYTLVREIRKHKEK
method: Raf1-KRAS WT-GppNHP disruption HTRF assay (Biological Example 1)
Assay type: binding
conditionSet: KRAS WT, GppNHp-loaded; Table 11
pIC50: −log10 of the molar value.
observedProperty: pIC50

Q: Quote pIC50 with test system Avi-KRAS WT (1-169) GppNHp/RAF1 RBD-3xFLAG (52-151) (Homo sapiens, UniProt P01116) for `N#CC[C@@H]1CN(c2nc(OC[C@@]34CCCN3C[C@H](F)C4)nc3c(F)c(-c4ccc(F)c5sc(N)c(C#N)c45)c(C(F)(F)F)cc23)CCO1`
Ans: 6.00 to 7.00

Q: Quote pIC50 with test system Avi-KRAS WT (1-169) GppNHp/RAF1 RBD-3xFLAG (52-151) (Homo sapiens, UniProt P01116) for `Nc1nc2c(-c3c(C(F)(F)F)cc4c(N[C@H]5CC[C@@H](O)CC5)nc(OCC56CCCN5CCC6)nc4c3F)ccc(F)c2s1`
Ans: 5.00 to 6.00

Q: Quote pIC50 with test system Avi-KRAS WT (1-169) GppNHp/RAF1 RBD-3xFLAG (52-151) (Homo sapiens, UniProt P01116) for `CN(c1nc(OC[C@@]23CCCN2C[C@H](F)C3)nc2c(F)c(-c3ccc(F)c4sc(N)c(C#N)c34)c(C(F)(F)F)cc12)[C@H]1C[C@@](C)(O)C1`
Ans: 6.00 to 7.00

Q: Quote pIC50 with test system Avi-KRAS WT (1-169) GppNHp/RAF1 RBD-3xFLAG (52-151) (Homo sapiens, UniProt P01116) for `CNC(=O)CN(C)c1nc(OC[C@@]23CCCN2C[C@H](F)C3)nc2c(F)c(-c3ccc(F)c4sc(N)c(C#N)c34)c(C(F)(F)F)cc12`
Ans: 6.00 to 7.00

Q: Quote pIC50 with test system Avi-KRAS WT (1-169) GppNHp/RAF1 RBD-3xFLAG (52-151) (Homo sapiens, UniProt P01116) for `COC[C@@H]1[C@H](N(C)c2nc(OC[C@@]34CCCN3C[C@H](F)C4)nc3c(F)c(-c4ccc(F)c5sc(N)c(C#N)c45)c(C(F)(F)F)cc23)CCN1C(C)=O`
Ans: 6.00 to 7.00

Q: Quote pIC50 with test system Avi-KRAS WT (1-169) GppNHp/RAF1 RBD-3xFLAG (52-151) (Homo sapiens, UniProt P01116) for `N#Cc1c(N)sc2c(F)ccc(-c3c(C(F)(F)F)cc4c(N5C6CCC5COC6)nc(OC[C@@]56CCCN5C[C@H](F)C6)nc4c3F)c12`
Ans: 6.00 to 7.00

Q: Quote pIC50 with test system Avi-KRAS WT (1-169) GppNHp/RAF1 RBD-3xFLAG (52-151) (Homo sapiens, UniProt P01116) for CC(=O)N1CC[C@H](N(C)c2nc(OC[C@@]34CCCN3C[C@H](F)C4)nc3c(F)c(-c4ccc(F)c5sc(N)c(C#N)c45)c(C(F)(F)F)cc23)[C@@H]1C (single isomer, unassigned) [Compound 194]
Ans: < 5.00

Q: Quote pIC50 with test system Avi-KRAS WT (1-169) GppNHp/RAF1 RBD-3xFLAG (52-151) (Homo sapiens, UniProt P01116) for CCC(=O)N1CC[C@@H](N(C)c2nc(OC[C@@]34CCCN3C[C@H](F)C4)nc3c(F)c(-c4ccc(F)c5sc(N)c(C#N)c45)c(C(F)(F)F)cc23)[C@H]1C [Compound 260]
Ans: > 7.00
